tgt: Vascular endothelial growth factor receptor 2 (Homo sapiens)
testParameters: at 0.1 mg/mL;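 further: VEGFR-2 inhibition read out by HTRF after 1 h, with the receptor's origin stated as unknown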
Description: Inhibition of VEGFR-2 (unknown origin) at 0.1 mg/ml after 1 hr by HTRF assay

# smilesData, resultUnit, inhibition
data = [
    ("COc1ccc(-c2cc3ccc(OC)cc3c(=O)n2-c2ccc(OCCN(C)C)cc2)cc1", "%", 66.1),
    ("COc1ccc(-c2cc3ccc(OC)cc3c(=O)n2-c2ccc(OCCCN3CCCC3)cc2)cc1", "%", 98.5),
    ("CCN(CC)CCOc1ccc(-n2c(-c3ccc(OC)cc3)cc3ccc(OC)cc3c2=O)cc1", "%", 92.5),
    ("COc1ccc(-c2cc3ccc(OC)cc3c(=O)n2-c2ccc(OCCCN3CCCCC3)cc2)cc1", "%", 72.8),
    ("O=c1c2cc(O)ccc2cc(-c2ccc(O)cc2)n1-c1ccc(OCCCN2CCCCC2)cc1", "%", 100),
    ("O=c1c2cc(O)ccc2cc(-c2ccc(O)cc2)n1-c1ccc(OCCN2CCCCC2)cc1", "%", 84.8),
    ("O=c1c2cc(O)ccc2cc(-c2ccc(O)cc2)n1-c1ccc(OCCN2CCCC2)cc1", "%", 49.9),
    ("CN1CCN(CCOc2ccc(-n3c(-c4ccc(O)cc4)cc4ccc(O)cc4c3=O)cc2)CC1", "%", 103),
    ("COc1ccc(-c2cc3ccc(OC)cc3c(=O)n2-c2ccc(OCCN3CCN(C)CC3)cc2)cc1", "%", 79.4),
    ("COc1ccc(-c2cc3ccc(OC)cc3c(=O)n2-c2ccc(OCCN3CCCCC3)cc2)cc1", "%", 65.3),
    ("CN(C)CCOc1ccc(-n2c(-c3ccc(O)cc3)cc3ccc(O)cc3c2=O)cc1", "%", 79.4),
    ("COc1ccc(-c2cc3ccc(OC)cc3c(=O)n2-c2ccc(OCCN3CCOCC3)cc2)cc1", "%", 51.2),
    ("COc1ccc(-c2cc3ccc(OC)cc3c(=O)n2-c2ccc(OCCN3CCCC3)cc2)cc1", "%", 83.8),
    ("O=c1c2cc(O)ccc2cc(-c2ccc(O)cc2)n1-c1ccc(OCCCN2CCCC2)cc1", "%", 48.3),
]
